pIC50: −log10 of the molar value.
Compiled record: pIC50 values for Fibroblast growth factor receptor 3 (Homo sapiens) across several sources.

List reported pIC50 for each of these compounds:
1. COc1cc(OC)c(Cl)c(-c2ncc3c(-c4ccc5c(c4)CCN(C)C5=O)n[nH]c3n2)c1Cl
2. COc1cc(OC)c(F)c(N2Cc3cnc(N)cc3C(C)(C)C2=O)c1F
3. N#CCC1(n2cc(-c3cnn4c(-c5cccc(NC(=O)NCC(F)(F)F)c5)cnc4c3)cn2)CN(C(=O)C2(C#N)CC2)C1
4. CC(C)Oc1cc(NC(=O)Nc2nccc(C=O)n2)ncc1C#N
5. CN(C)CCCn1cc(-c2cnc3ccn4c(C(N)=O)c(-c5c(Cl)cccc5Cl)nc4c3c2)cn1
6. NC(=O)c1c(-c2c(Cl)cccc2Cl)nc2c3cc(-c4cnn(Cc5ccccc5)c4)cnc3ccn12
7. CNC(=O)c1cncc(-c2cnn3cc(-c4ccc(N5CCN(C)CC5)nc4)c(O[C@H]4CCOC4)nc23)c1
8. N#Cc1ccc(Cn2cc(-c3cnc4ccn5c(CO)c(-c6c(Cl)cccc6Cl)nc5c4c3)cn2)cn1

Given back:
["> 7.00", "> 7.00", "> 8.00", "< 5.00", "> 10.00", "9.00 to 10.00", "> 8.00", "> 9.00"]

List reported pIC50 for each of these compounds:
1. COc1cc(OC)c(Cl)c(-c2cc3[nH]nc(-c4ccc(OCC(=O)N(C)C)c(C)c4)c3cn2)c1Cl
2. C=CC(=O)NCc1ncc2c(n1)C1(CC1)C(=O)N(c1c(F)c(OC)cc(OC)c1F)C2
3. CNC(=O)c1ccc(-c2cnc3ccn4c(C(N)=O)c(-c5c(Cl)cccc5Cl)nc4c3c2)cn1
4. COc1cc(OC)c(Cl)c(-c2cc3[nH]nc(-c4cnn(CC(=O)N5CC[C@H](F)C5)c4)c3cn2)c1Cl
5. CNc1ncc(-c2cnc3ccn4c(C(N)=O)c(-c5c(Cl)cccc5Cl)nc4c3c2)cn1
6. N[C@@H]1C[C@H](c2ccncc2NC(=O)c2ccc(F)c(-c3c(F)cccc3F)n2)O[C@@H]2CCC[C@]12O
7. CN1CCN(c2ccc3[nH]nc(-c4cnn(C)c4)c3n2)C(CC2CC2)C1=O (stereo not shown)
8. C=CC(=O)Nc1cnn(C[C@@H]2CCCO2)c1-c1cc2c(cn1)CN(c1c(F)c(OC)cc(OC)c1F)C(=O)C21CC1

Given back:
["> 7.00", "< 6.70", "9.00 to 10.00", "> 7.00", "9.00 to 10.00", "< 5.00", "7.52 to 8.00", "< 6.70"]

====

Compiled record: IC50 values for Fibroblast growth factor receptor 3 (Homo sapiens, UniProt P22607) across several sources.

{"Molecule": "COc1cc(OC)c(F)c(-c2ncc3c(-c4ccc(N5CCN(C)CC5)cc4)n[nH]c3n2)c1F", "Experimental Readout": "IC50", "Recorded Result": "< 100 nM"}

List reported IC50 for each of these molecules:
1. CC1C(=O)N(C)CCN1c1nc2c(-c3cnn(C)c3)n[nH]c2cc1C#N (stereo not drawn)
2. COCCNc1cc(NC(=O)N2CCCc3cc(CN(C)C(=O)COC)c(C=O)nc32)ncc1C#N

Given back:
["30 to 200 nM", "> 10000 nM"]

List reported IC50 for each of these molecules:
1. COc1cc(OC)c(F)c(N2Cc3cnc(N)c(C#N)c3N(Cc3cc(F)cc(F)c3)C2=O)c1F
2. COc1cc(OC)c(Cl)c(-c2cc3[nH]nc(-c4cnn(CC(=O)NC5CCN(C)CC5)c4)c3cn2)c1Cl
3. Cc1ccc2sc(-c3c(CN4CCNC(=O)C4)cn4ncnc(N)c34)cc2c1
4. CC[C@H]1O[C@@H](c2ccncc2NC(=O)c2nc(-c3ccccc3)cnc2N)C[C@@H](N)[C@]1(C)O
5. COc1cc(OC)c(F)c(-c2ncc3c(-c4ccc5c(c4)CN(C4CCN(C)CC4)C5=O)n[nH]c3n2)c1F
6. CONC(=O)c1cc(CCc2cnc(Nc3ccc(N4CCN(CCO)CC4)cc3)nc2)cc(OC)c1

Given back:
1. < 100 nM
2. < 100 nM
3. 18.7 nM
4. 420 nM
5. < 100 nM
6. 11 nM

List reported IC50 for each of these molecules:
1. C=CC(=O)NCc1cc2c(cn1)CN(c1c(F)c(OC)cc(OC)c1F)C(=O)N2CCOC
2. COc1cc(C)cc2cc(-c3c(CO[C@@H](C)CO)cn4ncnc(N)c34)sc12

Given back:
1. > 200 nM
2. 4.2 nM

List reported IC50 for each of these molecules:
1. COc1cc2[nH]nc(-c3cnn(C)c3)c2nc1N1CCN(C)C(=O)C1C (stereo not drawn)
2. CC(C)C1C(=O)N(C)CCN1c1ccc2[nH]nc(-c3cnn(CCN4CCOCC4)c3)c2n1 (stereo not drawn)
3. COc1cc(C)cc2cc(-c3c(CN4CCS(=O)(=O)CC4)cn4ncnc(N)c34)sc12
4. CC(C)(O)Cn1cc(-c2cc3ncc(-c4cccc(-c5ccc(F)cc5F)c4)n3nc2O[C@H]2CCOC2)cn1
5. COc1cc(OC)c(F)c(-c2ncc3c(-c4ccc5c(c4)CN(C(C)C)C5=O)n[nH]c3n2)c1F
6. Nc1c(-c2c(Cl)cccc2Cl)nc2c3cc(-c4cnn(C5CCOCC5)c4)cnc3ccn12
7. COc1cccc(-c2cccc3c2/C(=C/c2[nH]c(C)c(C(=O)NCCN(C(C)C)C(C)C)c2C)C(=O)N3)c1
8. NC(=O)c1c(-c2c(Cl)cccc2Cl)nc2c3cc(-c4ccc(C(=O)N5C[C@@H]6C[C@H]5CO6)cc4)cnc3ccn12

Given back:
["30 to 200 nM", "10 to 30 nM", "15.3 nM", "10 to 100 nM", "< 100 nM", "1 to 5 nM", "< 9.1 nM", "< 0.1 nM"]

List reported IC50 for each of these molecules:
1. COC(=O)c1cc2cc(-c3n[nH]c4cc(-c5c(F)c(OC)cc(OC)c5F)ncc34)ccc2o1
2. CC(C)[C@H]1C[C@@H](N)C[C@@H](c2ccncc2NC(=O)c2nc(-c3ccccc3)cnc2N)O1

Given back:
< 100 nM
> 10000 nM
